molecular target: MBP-Core-C DDX3X (human, UniProt O00571 132-662); experiment: EMSA; 1 mM ATP-Mg; EMSA: 20 mM K-phosphate pH 7.0, 125 mM KCl, 1 mM DTT, 0.005% Tween-20, 10% glycerol (1 mM ATP-Mg for MBP-FL/Core-C), gel at room temperature; ITC: 20 mM K-phosphate pH 7.0, 50 mM KCl, 25 C; NMR: 200 mM KCl (also 120 mM), 10 C, 50 uM; conditions: protein: recombinant; tags: N-terminal His6-MBP; label: 5'-FAM; parallel G4, dimer of 2 strands
Sequence (O00571 132-662): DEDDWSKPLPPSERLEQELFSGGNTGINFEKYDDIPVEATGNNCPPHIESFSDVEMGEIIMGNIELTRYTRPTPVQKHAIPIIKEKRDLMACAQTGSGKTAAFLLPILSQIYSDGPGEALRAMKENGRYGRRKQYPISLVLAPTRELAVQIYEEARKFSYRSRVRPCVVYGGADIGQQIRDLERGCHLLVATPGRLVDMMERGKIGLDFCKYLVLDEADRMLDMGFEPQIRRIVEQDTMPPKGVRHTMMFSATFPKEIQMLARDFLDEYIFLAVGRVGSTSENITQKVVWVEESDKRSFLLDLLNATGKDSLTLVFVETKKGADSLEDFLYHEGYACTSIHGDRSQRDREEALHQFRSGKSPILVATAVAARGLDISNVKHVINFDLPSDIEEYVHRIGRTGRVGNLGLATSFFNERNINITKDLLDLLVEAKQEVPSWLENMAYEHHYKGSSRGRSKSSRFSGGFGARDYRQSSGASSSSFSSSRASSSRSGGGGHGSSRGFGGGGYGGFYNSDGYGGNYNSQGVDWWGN
reported-metric: Kd (nM)
// note: answer is a bare numeric in nM

input: Look up Kd of UAGGGUUAGGGU (structured_RNA) [FAM-telomeric GQ RNA] and report it.
output: 579
